// provenance: ChEMBL document CHEMBL1144812

- assay.explanation: Cytotoxicity against human HeLa cells after 24 hrs
- Assay type: cell-based
- condition.notes: read-out: CD50
Here the recorded CC50 at 24 h is given for each entry.
experimental.readout: CC50 at 24 h (µM)

[[record]]
molecule = "COc1ccccc1NC(=S)N1N=C(c2ccccc2O)C[C@H]1c1ccccc1O"
experimental_readout = "CC50 at 24 h"
op = "="
reported_value = 15

[[record]]
molecule = "COc1ccc([C@@H]2CC(c3ccccc3O)=NN2C(=S)Nc2ccccc2)cc1"
experimental_readout = "CC50 at 24 h"
op = "="
reported_value = 5

[[record]]
molecule = "CN[C@@H]1[C@H](O[C@H]2[C@H](O[C@H]3[C@H](O)[C@@H](O)[C@H](N=C(N)N)[C@@H](O)[C@@H]3N=C(N)N)O[C@@H](C)[C@]2(O)C=O)O[C@@H](CO)[C@H](O)[C@H]1O (stereo in doubt)"
experimental_readout = "CC50 at 24 h"
op = ">"
reported_value = 500

[[record]]
molecule = "Cc1ccc(NC(=S)N2N=C(c3ccccc3O)C[C@H]2c2ccc(O)cc2)cc1"
experimental_readout = "CC50 at 24 h"
op = "="
reported_value = 3

[[record]]
molecule = "C[C@@H]1C[C@@H]([C@H](O)CC2CC(=O)NC(=O)C2)C(=O)[C@@H](C)C1 [CYCLOHEXIMIDE]"
experimental_readout = "CC50 at 24 h"
op = "="
reported_value = 0.1

[[record]]
molecule = "COc1ccccc1NC(=S)N1N=C(c2ccccc2O)C[C@H]1c1ccc(O)cc1"
experimental_readout = "CC50 at 24 h"
op = "="
reported_value = 1

[[record]]
molecule = "COc1ccc(NC(=S)N2N=C(c3ccccc3O)C[C@H]2c2ccccc2O)cc1"
experimental_readout = "CC50 at 24 h"
op = "="
reported_value = 1

[[record]]
molecule = "COc1cc([C@@H]2CC(c3ccccc3O)=NN2C(=S)Nc2ccccc2)ccc1O"
experimental_readout = "CC50 at 24 h"
op = "="
reported_value = 13

[[record]]
molecule = "COc1ccc(NC(=S)N2N=C(c3ccc(O)cc3O)C[C@H]2c2ccc(O)c(OC)c2)cc1"
experimental_readout = "CC50 at 24 h"
op = "="
reported_value = 31

[[record]]
molecule = "Cc1ccccc1NC(=S)N1N=C(c2ccccc2O)C[C@H]1c1ccccc1O"
experimental_readout = "CC50 at 24 h"
op = "="
reported_value = 17

[[record]]
molecule = "Oc1ccc([C@@H]2CC(c3ccccc3)=NN2C(=S)Nc2ccccc2)cc1"
experimental_readout = "CC50 at 24 h"
op = "="
reported_value = 29

[[record]]
molecule = "COc1cc([C@@H]2CC(c3ccccc3O)=NN2C(=S)Nc2ccccc2C)ccc1O"
experimental_readout = "CC50 at 24 h"
op = "="
reported_value = 15

[[record]]
molecule = "Oc1ccccc1C1=NN(C(=S)Nc2ccccc2)[C@H](c2ccccc2Cl)C1"
experimental_readout = "CC50 at 24 h"
op = "="
reported_value = 5

[[record]]
molecule = "COc1ccccc1NC(=S)N1N=C(c2ccc(O)cc2O)C[C@H]1c1ccc(O)cc1"
experimental_readout = "CC50 at 24 h"
op = "="
reported_value = 23

[[record]]
molecule = "CO[C@H]1/C=C/O[C@@]2(C)Oc3c(C)c(O)c4c(O)c(c(/C=N/N5CCN(C)CC5)c(O)c4c3C2=O)NC(=O)/C(C)=C\\C=C\\[C@H](C)[C@H](O)[C@@H](C)[C@@H](O)[C@@H](C)[C@H](OC(C)=O)[C@@H]1C"
experimental_readout = "CC50 at 24 h"
op = "="
reported_value = 190

[[record]]
molecule = "COc1cc([C@@H]2CC(c3ccc(O)cc3O)=NN2C(=S)Nc2ccccc2)ccc1O"
experimental_readout = "CC50 at 24 h"
op = "="
reported_value = 30

